These measurements were taken from paper PMC5544777.

# target of assay: RFK module of CaFADS (Corynebacterium ammoniagenes, UniProt Q59263, L183M)
# Construct: a truncated CaFADS variant consisting in the isolated C-terminal RFK module; made in house; host or cells: E. coli BL21(DE3)
# Sequence (Q59263 183-338 L183M): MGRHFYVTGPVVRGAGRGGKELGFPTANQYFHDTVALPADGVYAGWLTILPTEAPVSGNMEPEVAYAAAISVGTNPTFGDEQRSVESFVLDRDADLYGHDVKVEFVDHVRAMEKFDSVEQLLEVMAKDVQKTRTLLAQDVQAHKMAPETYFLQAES
# test name: Isothermal titration calorimetry of binary and ternary interactions
# Format: binding
# test settings: initial mixture RFK:RF; 0.8 mM MgCl2; read-out: Kd
metric name: pKd
Schema: pKd number; meaning minus log10 of the concentration expressed in molar units.

Nc1ncnc2c1ncn2[C@@H]1O[C@H](COP(=O)(O)OP(=O)(O)O)[C@@H](O)[C@H]1O [ADP] yielded pKd of 6.00

---

# target of assay: RFK module of CaFADS (Corynebacterium ammoniagenes, UniProt Q59263, L183M)
# Construct: a truncated CaFADS variant consisting in the isolated C-terminal RFK module; made in house; host or cells: E. coli BL21(DE3)
# test name: Isothermal titration calorimetry of binary and ternary interactions
# Assay type: binding
# test settings: initial mixture RFK; 0.8 mM MgCl2, 20 mM PIPES, pH 7.0, 25 °C; read-out: Kd
metric name: pKd
Schema: pKd number; meaning minus log10 of the concentration expressed in molar units.

"Nc1ncnc2c1ncn2[C@@H]1O[C@H](COP(=O)(O)OP(=O)(O)O)[C@@H](O)[C@H]1O" yielded pKd of 4.66

---

# target of assay: RFK module of CaFADS (Corynebacterium ammoniagenes, UniProt Q59263, L183M)
# Construct: a truncated CaFADS variant consisting in the isolated C-terminal RFK module; made in house; host or cells: E. coli BL21(DE3)
# test name: Isothermal titration calorimetry of binary and ternary interactions
# Assay type: binding
# test settings: initial mixture RFK:FMN; 0.8 mM MgCl2; read-out: Kd
# Procedure: Isothermal titration calorimetry (ITC) experiments were performed to elucidate the order in which ligands bind to the enzyme, as well as the binding inhibition effects from the thermodynamic point of view. Experiments were carried out in an AutoITC200 (MicroCal) that was thermostated at 25 °C. […] Titrations with FLV ligands of mixtures that contained the enzyme prebound with the ANP ligand were also carried out, as well as ANP titrations of mixtures of the enzyme saturated with FLV ligands. […]
metric name: Kd (nM)
All answers are understood in nM, so give the number only.

"Nc1ncnc2c1ncn2[C@@H]1O[C@H](COP(=O)(O)OP(=O)(O)O)[C@@H](O)[C@H]1O" yielded Kd of 600

---

# target of assay: RFK module of CaFADS (Corynebacterium ammoniagenes, UniProt Q59263, L183M)
# Construct: a truncated CaFADS variant consisting in the isolated C-terminal RFK module; made in house; host or cells: E. coli BL21(DE3)
# test name: Isothermal titration calorimetry of binary and ternary interactions
# Type: binding
# test settings: Kd, initial mixture RFK; 0.8 mM MgCl2, 20 mM PIPES, pH 7.0, 25 °C
metric name: Kd (µM)
All answers are understood in µM, so give the number only.

Kindly note: RFK module of CaFADS (Corynebacterium ammoniagenes, UniProt Q59263, L183M), Cc1cc2nc3c(=O)[nH]c(=O)nc-3n(C[C@H](O)[C@H](O)[C@H](O)CO)c2cc1C [RF, riboflavin] , Kd value reported: 15.2

---

# target of assay: RFK module of CaFADS (Corynebacterium ammoniagenes, UniProt Q59263, L183M)
# Construct: a truncated CaFADS variant consisting in the isolated C-terminal RFK module; made in house; host or cells: E. coli BL21(DE3)
# test name: Isothermal titration calorimetry of binary and ternary interactions
# Assay type: binding
# test settings: Kd, initial mixture RFK:ADP; 0.0 mM MgCl2
metric name: pKd
Schema: pKd number; meaning minus log10 of the concentration expressed in molar units.

"Cc1cc2nc3c(=O)[nH]c(=O)nc-3n(C[C@H](O)[C@H](O)[C@H](O)CO)c2cc1C" yielded pKd of 4.84
